Entries annotated with measured tissue uptake at 24 h
assay: in vivo; set-up: species or system mice; conditions: male, NODSCID 1L2RγKO, mouse, iv, total radioactivity, Tail uptake
observation-type: tissue uptake at 24 h (%ID/g)

COc1ccc(CCCC(=O)NCC(=O)N[C@@H](CCCCNC(=O)CN2CCN(CC(=O)O)CCN(CC(=O)O)CCN(CC(=O)O)CC2)C(=O)NC[C@H]2CC[C@H](C(=O)N[C@@H](Cc3c4ccccc4cc4ccccc34)C(=O)NCCCC[C@H](NC(=O)N[C@@H](CCCC(=O)O)C(=O)O)C(=O)O)CC2)cc1 [177Lu-HTK03170, metal not drawn] | 0.31
COc1ccc(CCCC(=O)NCC(=O)N[C@@H](CCCCNC(=O)CN2CCN(CC(=O)O)CCN(CC(=O)O)CCN(CC(=O)O)CC2)C(=O)NC[C@H]2CC[C@H](C(=O)N[C@@H](Cc3c4ccccc4cc4ccccc34)C(=O)NCCCC[C@H](NC(=O)N[C@@H](CSCC(=O)O)C(=O)O)C(=O)O)CC2)cc1 [177Lu-HTK04048, metal not drawn] | 0.4
COc1ccc(CCCC(=O)NCC(=O)N[C@@H](CCCCNC(=O)CN2CCN(CC(=O)O)CCN(CC(=O)O)CCN(CC(=O)O)CC2)C(=O)NC[C@H]2CC[C@H](C(=O)N[C@@H](Cc3c4ccccc4cc4ccccc34)C(=O)NCCCC[C@H](NC(=O)N[C@@H](COCC(=O)O)C(=O)O)C(=O)O)CC2)cc1 [177Lu-HTK04028, metal not drawn] | 0.31
O=C(O)CCC[C@H](NC(=O)N[C@@H](CCCCNC(=O)[C@H](Cc1c2ccccc2cc2ccccc12)NC(=O)[C@H]1CC[C@H](CNC(=O)[C@H](CCCCNC(=O)CN2CCN(CC(=O)O)CCN(CC(=O)O)CCN(CC(=O)O)CC2)NC(=O)CNC(=O)CCCc2ccc(Cl)cc2)CC1)C(=O)O)C(=O)O [177Lu-HTK03153, metal not drawn] | 1.55
O=C(O)CCC[C@H](NC(=O)N[C@@H](CCCCNC(=O)[C@H](Cc1c2ccccc2cc2ccccc12)NC(=O)[C@H]1CC[C@H](CNC(=O)CN2CCN(CC(=O)O)CCN(CC(=O)O)CCN(CC(=O)O)CC2)CC1)C(=O)O)C(=O)O [177Lu-HTK03149, metal not drawn] | 0.14

* * *

Entries annotated with measured tissue uptake at 1 h
assay: in vivo; conditions: male, NODSCID 1L2RγKO, mouse, iv, total radioactivity, Brain uptake
observation-type: tissue uptake at 1 h (%ID/g)

O=C(O)CSC[C@H](NC(=O)N[C@@H](CCCCNC(=O)[C@H](Cc1c2ccccc2cc2ccccc12)NC(=O)[C@H]1CC[C@H](CNC(=O)CN2CCN(CC(=O)O)CCN(CC(=O)O)CCN(CC(=O)O)CC2)CC1)C(=O)O)C(=O)O [68Ga-HTK03177, metal not drawn] | 0.02
O=C(O)CCC[C@H](NC(=O)N[C@@H](CCCCNC(=O)[C@H](Cc1c2ccccc2cc2ccccc12)NC(=O)Cc1cccc(CNC(=O)CN2CCN(CC(=O)O)CCN(CC(=O)O)CCN(CC(=O)O)CC2)c1)C(=O)O)C(=O)O [68Ga-HTK04037, metal not drawn] | 0.02

* * *

tested on: PSMA-expressing LNCaP cancer xenografts; details: mouse, in vivo
observation-type: Tumor: Muscle ratio

O=C(O)CCC[C@H](NC(=O)N[C@@H](CCCCNC(=O)[C@H](Cc1c2ccccc2cc2ccccc12)NC(=O)Cc1cccc(CNC(=O)CN2CCN(CC(=O)O)CCN(CC(=O)O)CCN(CC(=O)O)CC2)c1)C(=O)O)C(=O)O [68Ga-HTK04037, metal not drawn] | 165
O=C(O)CCC[C@H](NC(=O)N[C@@H](CCCCNC(=O)[C@H](Cc1cccc(I)c1)NC(=O)[C@H]1CC[C@H](CNC(=O)CN2CCN(CC(=O)O)CCN(CC(=O)O)CCN(CC(=O)O)CC2)CC1)C(=O)O)C(=O)O [68Ga-HTK04053, metal not drawn] | 93.7

* * *

assay: in vivo; parameters: species or system mice; details: male, NODSCID 1L2RγKO, mouse, iv, total radioactivity, Stomach uptake
# cutoff 0.2 %ID/g applies to tissue uptake at 72 h; >= gives t, < gives f

COc1ccc(CCCC(=O)NCC(=O)N[C@@H](CCCCNC(=O)CN2CCN(CC(=O)O)CCN(CC(=O)O)CCN(CC(=O)O)CC2)C(=O)NC[C@H]2CC[C@H](C(=O)N[C@@H](Cc3c4ccccc4cc4ccccc34)C(=O)NCCCC[C@H](NC(=O)N[C@@H](COCC(=O)O)C(=O)O)C(=O)O)CC2)cc1 [177Lu-HTK04028, metal not drawn] | f
O=C(O)CCC[C@H](NC(=O)N[C@@H](CCCCNC(=O)[C@H](Cc1c2ccccc2cc2ccccc12)NC(=O)[C@H]1CC[C@H](CNC(=O)CN2CCN(CC(=O)O)CCN(CC(=O)O)CCN(CC(=O)O)CC2)CC1)C(=O)O)C(=O)O [177Lu-HTK03149, metal not drawn] | f
COc1ccc(CCCC(=O)NCC(=O)N[C@@H](CCCCNC(=O)CN2CCN(CC(=O)O)CCN(CC(=O)O)CCN(CC(=O)O)CC2)C(=O)NC[C@H]2CC[C@H](C(=O)N[C@@H](Cc3c4ccccc4cc4ccccc34)C(=O)NCCCC[C@H](NC(=O)N[C@@H](CSCC(=O)O)C(=O)O)C(=O)O)CC2)cc1 [177Lu-HTK04048, metal not drawn] | t
COc1ccc(CCCC(=O)NCC(=O)N[C@@H](CCCCNC(=O)CN2CCN(CC(=O)O)CCN(CC(=O)O)CCN(CC(=O)O)CC2)C(=O)NC[C@H]2CC[C@H](C(=O)N[C@@H](Cc3c4ccccc4cc4ccccc34)C(=O)NCCCC[C@H](NC(=O)N[C@@H](CCCC(=O)O)C(=O)O)C(=O)O)CC2)cc1 [177Lu-HTK03170, metal not drawn] | t
O=C(O)CCC[C@H](NC(=O)N[C@@H](CCCCNC(=O)[C@H](Cc1c2ccccc2cc2ccccc12)NC(=O)[C@H]1CC[C@H](CNC(=O)[C@H](CCCCNC(=O)CN2CCN(CC(=O)O)CCN(CC(=O)O)CCN(CC(=O)O)CC2)NC(=O)CNC(=O)CCCc2ccc(Cl)cc2)CC1)C(=O)O)C(=O)O [177Lu-HTK03153, metal not drawn] | t

* * *

assay: in vivo; conditions: male, NODSCID 1L2RγKO, mouse, iv, total radioactivity, Blood uptake
I'd appreciate it if you marked entries 1 when tissue uptake at 1 h is lower than 0.7 %ID/g and -1 when it is not.

O=C(O)CCC[C@H](NC(=O)N[C@@H](CCCCNC(=O)[C@H](Cc1c2ccccc2cc2ccccc12)NC(=O)[C@H]1CC[C@H](CNC(=O)CN2CCN(CC(=O)O)CCN(CC(=O)O)CCN(CC(=O)O)CC2)CC1)C(=O)O)C(=O)O [68Ga-HTK03149, metal not drawn] | -1
O=C(O)CN1CCN(CC(=O)O)CCN(CC(=O)NC[C@H]2CC[C@H](C(=O)N[C@@H](Cc3c4ccccc4cc4ccccc34)C(=O)NCCCC[C@H](NC(=O)N[C@@H](C[C@H](F)C(=O)O)C(=O)O)C(=O)O)CC2)CCN(CC(=O)O)CC1 [68Ga-HTK04040, metal not drawn] | -1
O=C(O)CCC[C@H](NC(=O)N[C@@H](CCCCNC(=O)[C@H](Cc1ccc2ccccc2c1)NC(=O)[C@H]1CC[C@H](CNC(=O)CN2CCN(CC(=O)O)CCN(CC(=O)O)CCN(CC(=O)O)CC2)CC1)C(=O)O)C(=O)O [68Ga-HTK03169, metal not drawn] | 1
O=C(O)CCC[C@H](NC(=O)N[C@@H](CCCCNC(=O)[C@H](Cc1cccc(I)c1)NC(=O)[C@H]1CC[C@H](CNC(=O)CN2CCN(CC(=O)O)CCN(CC(=O)O)CCN(CC(=O)O)CC2)CC1)C(=O)O)C(=O)O [68Ga-HTK04053, metal not drawn] | 1
O=C(O)CCC[C@H](NC(=O)N[C@@H](CCCCNC(=O)[C@H](Cc1c2ccccc2cc2ccccc12)NC(=O)c1ccc(NC(=O)CN2CCN(CC(=O)O)CCN(CC(=O)O)CCN(CC(=O)O)CC2)cc1)C(=O)O)C(=O)O [68Ga-HTK04041, metal not drawn] | -1
O=C(O)CN1CCN(CC(=O)O)CCN(CC(=O)NC[C@H]2CC[C@H](C(=O)N[C@@H](Cc3c4ccccc4cc4ccccc34)C(=O)NCCCC[C@H](NC(=O)N[C@@H](C[C@@H](F)C(=O)O)C(=O)O)C(=O)O)CC2)CCN(CC(=O)O)CC1 [68Ga-HTK04033, metal not drawn] | 1
O=C(O)CCC[C@H](NC(=O)N[C@@H](CCCCNC(=O)[C@H](Cc1c2ccccc2cc2ccccc12)NC(=O)Cc1cccc(CNC(=O)CN2CCN(CC(=O)O)CCN(CC(=O)O)CCN(CC(=O)O)CC2)c1)C(=O)O)C(=O)O [68Ga-HTK04037, metal not drawn] | 1
